Cited source: ChEMBL document CHEMBL1134910

# Measurement target: Adenosine receptor A2a (Sus scrofa)
pKi: −log10 of the molar value.
Recorded metric: pKi

The examples below pair each entry with its known result.
>>> result("Nc1nc(-c2cnn(CC3CCCCC3)c2)nc2c1ncn2[C@@H]1O[C@H](CO)[C@@H](O)[C@H]1O")
6.06
>>> result("CCOC(=O)c1cnn(-c2nc(N)c3ncn([C@@H]4O[C@H](CO)[C@@H](O)[C@H]4O)c3n2)c1")
5.89
>>> result("Cc1ccc(-c2cnn(-c3nc(N)c4ncn([C@@H]5O[C@H](CO)[C@@H](O)[C@H]5O)c4n3)c2)cc1")
6.31

[I] NC(=O)c1cnn(-c2nc(N)c3ncn([C@@H]4O[C@H](CO)[C@@H](O)[C@H]4O)c3n2)c1
[II] Nc1nc(-c2cnn(CCCC3CCCCC3)c2)nc2c1ncn2[C@@H]1O[C@H](CO)[C@@H](O)[C@H]1O
Hi there, can you help? I need to know whether I or II has lower measured pKi. Answer with the label corresponding to your selection.
II
(II: 5.18, I: 5.87)

* * *

Here we list molecules with their recorded Ki when tested on Adenosine receptor A2a (Rattus norvegicus, UniProt P30543).
Sequence (P30543 whole entry): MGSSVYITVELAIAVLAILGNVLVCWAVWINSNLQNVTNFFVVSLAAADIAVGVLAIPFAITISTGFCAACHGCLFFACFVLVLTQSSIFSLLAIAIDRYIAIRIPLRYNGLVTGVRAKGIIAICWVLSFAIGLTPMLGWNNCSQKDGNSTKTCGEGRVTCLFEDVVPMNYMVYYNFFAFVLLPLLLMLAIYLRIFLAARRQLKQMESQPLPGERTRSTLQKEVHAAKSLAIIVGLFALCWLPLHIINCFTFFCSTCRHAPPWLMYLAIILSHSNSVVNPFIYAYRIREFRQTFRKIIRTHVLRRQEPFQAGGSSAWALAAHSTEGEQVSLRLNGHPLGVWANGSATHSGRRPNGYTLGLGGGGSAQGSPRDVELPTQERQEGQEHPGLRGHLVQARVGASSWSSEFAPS
Recorded metric: Ki (nM)

[P] CCOC(=O)c1cnn(-c2nc(N)c3ncn([C@@H]4O[C@H](CO)[C@@H](O)[C@H]4O)c3n2)c1
[Q] Nc1nc(-c2cnn(CCc3ccccc3)c2)nc2c1ncn2[C@@H]1O[C@H](CO)[C@@H](O)[C@H]1O
[R] C=CCCCn1cc(-c2nc(N)c3ncn([C@@H]4O[C@H](CO)[C@@H](O)[C@H]4O)c3n2)cn1
Put the above entries in order of falling Ki. Lab note: record answer as labels in requested order.
Q, R, P
(Q: 2260 nM, R: 470 nM, P: 60 nM)

[a] Cc1ccc(-c2cnn(-c3nc(N)c4ncn([C@@H]5O[C@H](CO)[C@@H](O)[C@H]5O)c4n3)c2)cc1
[b] CCCCCn1cc(-c2nc(N)c3ncn([C@@H]4O[C@H](CO)[C@@H](O)[C@H]4O)c3n2)cn1
Parameter metric = Ki. Return the lower-valued option from a and b . Use the label to indicate which entry you chose.
a

* * *

# Measurement target: Adenosine receptor A1 (Homo sapiens, UniProt P30542)
# Sequence (P30542 whole entry): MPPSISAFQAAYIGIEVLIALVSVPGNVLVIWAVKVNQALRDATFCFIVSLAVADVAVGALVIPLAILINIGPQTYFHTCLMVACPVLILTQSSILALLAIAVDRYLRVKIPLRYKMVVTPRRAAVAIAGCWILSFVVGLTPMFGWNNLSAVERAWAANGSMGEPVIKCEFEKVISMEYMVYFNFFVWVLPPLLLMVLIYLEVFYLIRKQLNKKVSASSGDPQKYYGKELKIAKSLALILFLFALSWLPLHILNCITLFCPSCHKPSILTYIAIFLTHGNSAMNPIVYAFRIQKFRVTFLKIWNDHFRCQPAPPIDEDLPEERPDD
# Test details: Binding affinity for adenosine (ADO) A1 receptor in CHO cells
pKi: −log10 of the molar value.
Recorded metric: pKi

Endpoint output: pKi of CNC(=O)c1cnn(-c2nc(N)c3ncn([C@@H]4O[C@H](CO)[C@@H](O)[C@H]4O)c3n2)c1 [REGADENOSON ANHYDROUS] . Value?
< 4.78

* * *

Here we list molecules with their recorded Ki when tested on Adenosine receptor A2a (Rattus norvegicus, UniProt P30543).
Recorded metric: Ki (nM)

>>> result("Nc1nc(-c2cnn(Cc3ccccc3)c2)nc2c1ncn2[C@@H]1O[C@H](CO)[C@@H](O)[C@H]1O")
1610

[1] Nc1nc(-c2cnn(CCCC3CCCCC3)c2)nc2c1ncn2[C@@H]1O[C@H](CO)[C@@H](O)[C@H]1O
[2] CN(C)C(=O)c1cnn(-c2nc(N)c3ncn([C@@H]4O[C@H](CO)[C@@H](O)[C@H]4O)c3n2)c1
# min-compare on Ki between 1 and 2 Write down the label of the entry you select.
2
(2: 140 nM, 1: 2620 nM)
